Source: the NIST ThermoML archive (doi:10.1021/je101232g)

settings: 323.15 K; 25000 kPa; Liquid
Would you mind telling me the reported mass density of each entry?
Kindly provide the numeric value in kg/m3 only, without the unit symbol.

Asked: Could you share which mass density value was measured for CCCCCCCCCCCCCC[P+](CCCCCC)(CCCCCC)CCCCCC.CS(=O)(=O)[O-] [trihexyltetradecylphosphonium methanesulfonate] ?
Given back: 927.9

Asked: Could you share which mass density value was measured for CCCCCCCCCCCCCC[P+](CCCCCC)(CCCCCC)CCCCCC.O=S(=O)([N-]S(=O)(=O)C(F)(F)F)C(F)(F)F ?
Given back: 1064

Asked: Could you share which mass density value was measured for CCCCCCCCCCCCCC[P+](CCCCCC)(CCCCCC)CCCCCC.[Br-] [tetradecyltrihexylphosphonium bromide] ?
Given back: 952.4

Asked: Could you share which mass density value was measured for CCCCCCCCCCCCCC[P+](CCCCCC)(CCCCCC)CCCCCC.[Cl-] [trihexyl(tetradecyl)phosphonium chloride] ?
Given back: 887.8

Asked: Could you share which mass density value was measured for CCCCCCCCCCCCCC[P+](CCCCCC)(CCCCCC)CCCCCC.N#C[N-]C#N [tetradecyl(trihexyl)phosphonium dicyanamide] ?
Given back: 896.7

====

details: 313.15 K; 25000 kPa; Liquid
readout: mass density (kg/m3)
Kindly provide the numeric value in kg/m3 only, without the unit symbol.

Asked: Could you share which mass density value was measured for CCCCCCCCCCCCCC[P+](CCCCCC)(CCCCCC)CCCCCC.[Br-] [tetradecyltrihexylphosphonium bromide] ?
Given back: 958

Asked: Could you share which mass density value was measured for CCCCCCCCCCCCCC[P+](CCCCCC)(CCCCCC)CCCCCC.[Cl-] [trihexyl(tetradecyl)phosphonium chloride] ?
Given back: 893.2

Asked: Could you share which mass density value was measured for CCCCCCCCCCCCCC[P+](CCCCCC)(CCCCCC)CCCCCC.N#C[N-]C#N [tetradecyl(trihexyl)phosphonium dicyanamide] ?
Given back: 902.1

Asked: Could you share which mass density value was measured for CCCCCCCCCCCCCC[P+](CCCCCC)(CCCCCC)CCCCCC.CS(=O)(=O)[O-] [trihexyltetradecylphosphonium methanesulfonate] ?
Given back: 933.5

Asked: Could you share which mass density value was measured for CCCCCCCCCCCCCC[P+](CCCCCC)(CCCCCC)CCCCCC.O=S(=O)([N-]S(=O)(=O)C(F)(F)F)C(F)(F)F ?
Given back: 1070.7

====

conditions: 283.15 K; 25000 kPa; Liquid
So basically, if mass density comes in under 1000 kg/m3 it's Criterion met, and if it's 1000 kg/m3 or more it's Criterion not met.

Asked: Here's an entry: CCCCCCCCCCCCCC[P+](CCCCCC)(CCCCCC)CCCCCC.[Cl-] [trihexyl(tetradecyl)phosphonium chloride] . Is its mass density below 1000 kg/m3?
Given back: Criterion met

Asked: Here's an entry: CCCCCCCCCCCCCC[P+](CCCCCC)(CCCCCC)CCCCCC.N#C[N-]C#N [tetradecyl(trihexyl)phosphonium dicyanamide] . Is its mass density below 1000 kg/m3?
Given back: Criterion met

Asked: Here's an entry: CCCCCCCCCCCCCC[P+](CCCCCC)(CCCCCC)CCCCCC.CS(=O)(=O)[O-] [trihexyltetradecylphosphonium methanesulfonate] . Is its mass density below 1000 kg/m3?
Given back: Criterion met

Asked: Here's an entry: CCCCCCCCCCCCCC[P+](CCCCCC)(CCCCCC)CCCCCC.O=S(=O)([N-]S(=O)(=O)C(F)(F)F)C(F)(F)F . Is its mass density below 1000 kg/m3?
Given back: Criterion not met
